Can you tell me self-splicing fitness (ln) for the items I'm about to list?
assay: self-splicing fitness, log relative to wild type (ln ratio); higher = more splicing; Tetrahymena group I intron in knt gene, E. coli kanamycin selection, DiMSum; sequences stand for … in CUCUCU…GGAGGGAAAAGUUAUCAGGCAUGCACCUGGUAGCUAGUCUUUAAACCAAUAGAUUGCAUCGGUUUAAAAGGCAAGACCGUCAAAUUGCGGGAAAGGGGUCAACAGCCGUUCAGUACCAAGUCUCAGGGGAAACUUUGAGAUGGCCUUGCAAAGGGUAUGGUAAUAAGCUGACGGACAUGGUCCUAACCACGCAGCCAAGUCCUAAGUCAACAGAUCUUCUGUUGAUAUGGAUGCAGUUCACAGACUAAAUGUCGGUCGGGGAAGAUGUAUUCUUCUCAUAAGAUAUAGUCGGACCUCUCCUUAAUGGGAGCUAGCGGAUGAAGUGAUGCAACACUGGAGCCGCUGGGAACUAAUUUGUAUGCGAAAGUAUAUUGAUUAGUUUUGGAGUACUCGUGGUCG; conditions: 37 °C;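 note: selection with 25 µg/mL kanamycin versus none on LB agar overnight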
Numbers only.

// batch mode: one self-splicing fitness (ln) value per listed entry
1. GGAAAGCAAUAUUACGACAG
2. ACGGAGCAAUAUUACGUGAA
3. CCCCAGCAAUAUUACGCGAA
4. CGUAAGCAAUAUUACGCCCG
5. CAUUAGCAAUAUUACGGCGC

Result:
[-2.17, -2.35, -1.69, -0.621, -0.0545]

// batch mode: one self-splicing fitness (ln) value per listed entry
1. UUAAAGCAAUAUUACGGUCA
2. GCAUAGCAAUAUUACGUUGU

Result:
1. 0.479
2. -2.74

// batch mode: one self-splicing fitness (ln) value per listed entry
1. GGAAAGCAAUAUUACGUCCA
2. CAUGAGCAAUAUUACGCAUC
3. AUACAGCAAUAUUACGGUAU

Result:
[-0.294, -2.41, -2.99]

// batch mode: one self-splicing fitness (ln) value per listed entry
1. AAAAAGCAAUAUUACGGGUU
2. CCCAAGCAAUAUUACGCGUU
3. GAACAGCAAUAUUACGGAUC
4. UGGCAGCAAUAUUACGGAAU
5. AACAAGCAAUAUUACGUCCG
6. ACUCAGCAAUAUUACGUAUG
7. GAUUAGCAAUAUUACGUACA

Result:
1. -1.37
2. -1.74
3. -0.441
4. -1.22
5. -0.444
6. -1.35
7. -0.352

====

experiment: self-splicing fitness, log relative to wild type (ln ratio); higher = more splicing; Tetrahymena group I intron in knt gene, E. coli kanamycin selection, DiMSum; sequences stand for … in CUCUCU…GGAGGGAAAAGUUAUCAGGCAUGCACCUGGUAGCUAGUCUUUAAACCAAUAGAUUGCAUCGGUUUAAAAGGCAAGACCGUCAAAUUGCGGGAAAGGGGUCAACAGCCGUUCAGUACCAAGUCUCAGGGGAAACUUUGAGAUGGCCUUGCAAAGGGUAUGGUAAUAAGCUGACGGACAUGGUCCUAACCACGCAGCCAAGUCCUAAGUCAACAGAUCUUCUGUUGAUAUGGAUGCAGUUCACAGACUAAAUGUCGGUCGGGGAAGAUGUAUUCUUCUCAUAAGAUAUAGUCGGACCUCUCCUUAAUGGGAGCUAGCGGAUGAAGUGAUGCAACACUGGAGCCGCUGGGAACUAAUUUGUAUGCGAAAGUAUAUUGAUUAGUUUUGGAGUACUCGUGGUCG; conditions: 37 °C
Decision: self-splicing fitness (ln) compared against -0.1; not below it gives Fulfilled, below it gives Not fulfilled.

Some entries whose results are on file:
polymer-sequence	assigned-label
ACGAAGCAAUAUUACGGAUG	Not fulfilled
AUAUAGCAAUAUUACGAUUU	Fulfilled
AUUAAGCAAUAUUACGGGUA	Fulfilled

Problem: Dear colleague, could you confirm whether AACGAGCAAUAUUACGGUGG has self-splicing fitness (ln) at or above -0.1?
Result: Not fulfilled

Problem: Again, but for GUAGAGCAAUAUUACGGAUG
Result: Not fulfilled

Problem: Again, but for CGCGAGCAAUAUUACGUAGU
Result: Not fulfilled

Problem: Again, but for UCGAAGCAAUAUUACGAGCG
Result: Not fulfilled

Problem: Again, but for GACUAGCAAUAUUACGUUAC
Result: Not fulfilled

====

assay: self-splicing fitness, log relative to wild type (ln ratio); higher = more splicing; Tetrahymena group I intron in knt gene, E. coli kanamycin selection, DiMSum; sequences stand for … in CUCUCU…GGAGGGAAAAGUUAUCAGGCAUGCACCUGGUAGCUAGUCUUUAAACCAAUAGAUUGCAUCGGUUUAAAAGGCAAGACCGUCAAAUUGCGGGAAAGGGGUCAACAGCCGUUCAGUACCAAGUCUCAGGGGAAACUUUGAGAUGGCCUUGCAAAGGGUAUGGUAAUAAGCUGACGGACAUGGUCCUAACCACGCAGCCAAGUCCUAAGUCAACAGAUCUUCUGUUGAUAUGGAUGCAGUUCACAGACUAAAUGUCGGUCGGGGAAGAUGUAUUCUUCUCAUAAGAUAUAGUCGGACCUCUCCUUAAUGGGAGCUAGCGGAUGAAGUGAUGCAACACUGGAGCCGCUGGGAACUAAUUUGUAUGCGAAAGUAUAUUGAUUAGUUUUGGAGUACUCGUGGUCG; settings: 37 °C
Decision: self-splicing fitness (ln) compared against -0.5; not below it gives y, below it gives n.

Some entries whose results are on file:
polymer-sequence	assigned-label
GAGCAGCAAUAUUACGAUAA	n
GUCCAGCAAUAUUACGCUGA	y
UUUUAGCAAUAUUACGGUAU	n
AAGUAGCAAUAUUACGACUA	y
UAAGAGCAAUAUUACGCCAC	n
CCCCAGCAAUAUUACGCCCG	n

Problem: Dear colleague, could you confirm whether AAGUAGCAAUAUUACGAUCC has self-splicing fitness (ln) at or above -0.5?
Result: y

Problem: Again, but for AAAAAGCAAUAUUACGGAGG
Result: n

Problem: Again, but for ACAAAGCAAUAUUACGUGGA
Result: n

Problem: Again, but for UGUCAGCAAUAUUACGCAGU
Result: n

Problem: Again, but for AAUUAGCAAUAUUACGUCCC
Result: y

Problem: Again, but for CCUCAGCAAUAUUACGGUAA
Result: n

Problem: Again, but for CGGAAGCAAUAUUACGUACU
Result: y

Problem: Again, but for GCGGAGCAAUAUUACGUGUG
Result: n

====

experiment: self-splicing fitness, log relative to wild type (ln ratio); higher = more splicing; Tetrahymena group I intron in knt gene, E. coli kanamycin selection, DiMSum; sequences stand for … in CUCUCU…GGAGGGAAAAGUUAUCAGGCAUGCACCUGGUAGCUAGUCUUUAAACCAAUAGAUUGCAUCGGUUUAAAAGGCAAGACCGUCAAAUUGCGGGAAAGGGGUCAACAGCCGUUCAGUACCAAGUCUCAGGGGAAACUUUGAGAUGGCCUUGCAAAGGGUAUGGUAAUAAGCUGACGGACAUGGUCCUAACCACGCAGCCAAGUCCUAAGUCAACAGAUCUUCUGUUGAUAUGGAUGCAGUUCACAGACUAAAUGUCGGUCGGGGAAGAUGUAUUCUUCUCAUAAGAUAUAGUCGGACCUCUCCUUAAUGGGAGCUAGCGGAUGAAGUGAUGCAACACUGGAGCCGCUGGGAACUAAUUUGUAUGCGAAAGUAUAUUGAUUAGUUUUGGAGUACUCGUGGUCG; conditions: 37 °C
Decision: self-splicing fitness (ln) compared against -1; not below it gives fulfilled, below it gives not fulfilled.

Problem: Dear colleague, could you confirm whether UCAGAGCAAUAUUACGGUCG has self-splicing fitness (ln) at or above -1?
Result: not fulfilled

Problem: Again, but for UAUAAGCAAUAUUACGUCAC
Result: not fulfilled

Problem: Again, but for UAGAAGCAAUAUUACGCAUU
Result: not fulfilled

Problem: Again, but for CCCUAGCAAUAUUACGAGCG
Result: not fulfilled

Problem: Again, but for CUCGAGCAAUAUUACGUUUC
Result: not fulfilled

Problem: Again, but for UGCUAGCAAUAUUACGGCUC
Result: not fulfilled

Problem: Again, but for GAAUAGCAAUAUUACGAUUG
Result: fulfilled

Problem: Again, but for CACAAGCAAUAUUACGGCUU
Result: not fulfilled

Problem: Again, but for UCGGAGCAAUAUUACGUAAA
Result: not fulfilled

Problem: Again, but for AGCAAGCAAUAUUACGCGCA
Result: fulfilled

Problem: Again, but for GCCAAGCAAUAUUACGCCCA
Result: fulfilled

Problem: Again, but for GCCUAGCAAUAUUACGCGCA
Result: fulfilled

Problem: Again, but for GCUAAGCAAUAUUACGCUCG
Result: fulfilled

Problem: Again, but for CGCGAGCAAUAUUACGAAAU
Result: not fulfilled
